System: HCI-011.E2 (organoid from an ER-positive breast cancer xenograft)
runDescription: CTG-3D luminescence at 96 h relative to day-0 seeding control (ratio to day 0); higher = more growth / less cytotoxicity; PDxO 3D drug screen, 96 h, CTG-3D normalised to day-0 seeding control.
measurementConditions: 100 µM
Entry flag: fulfilled if CTG-3D luminescence at 96 h reaches 1; not fulfilled if it does not.

A selection of reference data follows.
C=CCn1c(=O)c2cnc(Nc3ccc(N4CCN(C)CC4)cc3)nc2n1-c1cccc(C(C)(C)O)n1 [adavosertib]    fulfilled
CC(=O)O[C@H]1C(=O)[C@@]2(C)[C@H]([C@H](OC(=O)c3ccccc3)[C@]3(O)C[C@H](OC(=O)[C@H](O)[C@@H](NC(=O)c4ccccc4)c4ccccc4)C(C)=C1C3(C)C)[C@]1(OC(C)=O)CO[C@@H]1C[C@@H]2O [paclitaxel]    fulfilled
Cc1cc(Nc2ncnc3ccc(NC4=NC(C)(C)CO4)cc23)ccc1Oc1ccn2ncnc2c1 [tucatinib]    not fulfilled
CS(=O)(=O)c1ccc(C(=O)Nc2ccc(Cl)c(-c3ccccn3)c2)c(Cl)c1 [vismodegib]    fulfilled
Cc1nc(-c2cn3c(n2)-c2ccc(-c4cnn(C(C)(C)C(N)=O)c4)cc2OCC3)n(C(C)C)n1 [taselisib]    not fulfilled
O=C(/C=C/c1cccnc1)NCCCCC1CCN(C(=O)c2ccccc2)CC1 [FK866]    fulfilled

Could you verify whether the entry COc1cc2c(Oc3ccc4[nH]c(C)cc4c3F)ncnc2cc1OCCCN1CCCC1 [cediranib] shows CTG-3D luminescence at 96 h of no less than 1?
not fulfilled

For this compound, is measured CTG-3D luminescence at 96 h 1 or higher? CN(Cc1cnc2nc(N)nc(N)c2n1)c1ccc(C(=O)N[C@@H](CCC(=O)O)C(=O)O)cc1 [methotrexate]
fulfilled

Would you say C[C@H](NC(=O)CCC(F)(F)F)C(=O)N[C@@H]1C(=O)N(CCO)c2ncccc2-c2ccccc21 [crenigacestat] shows CTG-3D luminescence at 96 h at minimum 1?
fulfilled

###

Test system: HCI-001 (organoid from a triple-negative breast cancer xenograft)
runDescription: CTG-3D luminescence at 96 h relative to day-0 seeding control (ratio to day 0); higher = more growth / less cytotoxicity; PDxO 3D drug screen (set 2), 96 h, CTG-3D normalised to day-0 seeding control.
measurementConditions: 10 µM; days in culture: 397
Attribute: CTG-3D luminescence at 96 h

Some solved cases for reference:
C[C@@H](Nc1cc(F)cc(F)c1)c1cc(C(=O)N(C)C)cc2c(=O)cc(N3CCOCC3)oc12    1.69
COc1cccc2c1C(=O)c1c(O)c3c(c(O)c1C2=O)C[C@@](O)(C(=O)CO)C[C@@H]3O[C@H]1C[C@H](N)[C@@H](O)[C@H](C)O1 [epirubicin]    0.197
CS(=O)(=O)CCNCc1ccc(-c2ccc3ncnc(Nc4ccc(OCc5cccc(F)c5)c(Cl)c4)c3c2)o1    1.63
O=C(c1cc(Cc2n[nH]c(=O)c3ccccc23)ccc1F)N1CCN(C(=O)C2CC2)CC1    2.16
CCOc1ccn(-c2ccc(F)cc2)c(=O)c1C(=O)Nc1ccc(Oc2ccnc(N)c2Cl)c(F)c1    2.43

Recorded CTG-3D luminescence at 96 h for Cc1c(CN2CCN(C(=O)[C@H](C)O)CC2)sc2c(N3CCOCC3)nc(-c3cnc(N)nc3)nc12 , please?
0.643

###

System: HCI-001
runDescription: CTG-3D luminescence at 96 h relative to day-0 seeding control (ratio to day 0); higher = more growth / less cytotoxicity; PDxO 3D drug screen (set 2), 96 h, CTG-3D normalised to day-0 seeding control.
measurementConditions: 625 fM; days in culture: 365
resultType: CTG-3D luminescence at 96 h

CS(=O)(=O)CCNCc1ccc(-c2ccc3ncnc(Nc4ccc(OCc5cccc(F)c5)c(Cl)c4)c3c2)o1 [lapatinib]    1.46
CC(=O)O[C@@]12CO[C@@H]1C[C@H](O)[C@@]1(C)C(=O)[C@H](O)C3=C(C)[C@@H](OC(=O)[C@H](O)[C@@H](NC(=O)OC(C)(C)C)c4ccccc4)C[C@@](O)([C@@H](OC(=O)c4ccccc4)[C@H]21)C3(C)C [docetaxel]    1.34
Nc1cc(C(F)(F)F)c(-c2cc(N3CCOCC3)nc(N3CCOCC3)n2)cn1 [buparlisib]    1.89

Now look at this entry.
Under HCI-001: CTG-3D luminescence at 96 h value of CO[C@H]1C[C@@H]2CC[C@@H](C)[C@@](O)(O2)C(=O)C(=O)N2CCCC[C@H]2C(=O)O[C@H]([C@H](C)C[C@@H]2CC[C@@H](O)[C@H](OC)C2)CC(=O)[C@H](C)/C=C(\C)[C@@H](O)[C@@H](OC)C(=O)[C@H](C)C[C@H](C)/C=C/C=C/C=C/1C [rapamycin] ?
1.4

###

# Lookup of reported CTG-3D luminescence at 96 h keyed by entry
Tested on: HCI-002 (organoid from a triple-negative breast cancer xenograft)
runDescription: CTG-3D luminescence at 96 h relative to day-0 seeding control (ratio to day 0); higher = more growth / less cytotoxicity; PDxO 3D drug screen, 96 h, CTG-3D normalised to day-0 seeding control.
measurementConditions: 625 fM; days in culture: 191
Enter the number alone.

// below: answered compounds
O=C(O)C1(C(=O)O)CCC1.[NH2-].[NH2-].[Pt+2]    2.4
CC(C)(C(=O)NCC(F)(F)C(F)(F)F)C(=O)N[C@@H]1C(=O)Nc2ccccc2-c2ccccc21    2.66
NC1(C(=O)N[C@@H](CCO)c2ccc(Cl)cc2)CCN(c2nc[nH]c3nccc2-3)CC1    2.31
NC(=O)c1cccc2cn(-c3ccc([C@@H]4CCCNC4)cc3)nc12    3.21
Cc1cc(Nc2ncc(Cl)c(Nc3ccccc3S(=O)(=O)C(C)C)n2)c(OC(C)C)cc1C1CCNCC1    2.72

Consider the additional compound presented here.
Field request: CTG-3D luminescence at 96 h | item: CC(C)n1nc(-c2ccc3oc(N)nc3c2)c2c(N)ncnc21
2.61

###

Tested on: HCI-016 (organoid from a triple-negative breast cancer xenograft)
runDescription: CTG-3D luminescence at 96 h relative to day-0 seeding control (ratio to day 0); higher = more growth / less cytotoxicity; PDxO 3D drug screen, 96 h, CTG-3D normalised to day-0 seeding control.
measurementConditions: 12.5 pM; days in culture: 172
Below, each entry is listed alongside its reported CTG-3D luminescence at 96 h.
Answer with a number only.

Sample records with CTG-3D luminescence at 96 h:
CCN1CCN(Cc2ccc(Nc3ncc(F)c(-c4cc(F)c5nc(C)n(C(C)C)c5c4)n3)nc2)CC1    2.12
CNC(=O)c1cccc(-c2ccc3c(N4CCOC[C@@H]4C)nc(N4CCOC[C@@H]4C)nc3n2)c1    2.41
CN(Cc1cnc2nc(N)nc(N)c2n1)c1ccc(C(=O)N[C@@H](CCC(=O)O)C(=O)O)cc1 [methotrexate]    2.17
Cc1nc(-c2cn3c(n2)-c2ccc(-c4cnn(C(C)(C)C(N)=O)c4)cc2OCC3)n(C(C)C)n1    2.1

CTG-3D luminescence at 96 h lookup needed for C[C@H](NC(=O)CCC(F)(F)F)C(=O)N[C@@H]1C(=O)N(CCO)c2ncccc2-c2ccccc21 , thanks.
2.16

###

Tested on: HCI-025 (organoid from a breast cancer xenograft)
runDescription: CTG-3D luminescence at 96 h relative to day-0 seeding control (ratio to day 0); higher = more growth / less cytotoxicity; PDxO 3D drug screen, 96 h, CTG-3D normalised to day-0 seeding control.
measurementConditions: 1 µM; days in culture: 218
resultType: CTG-3D luminescence at 96 h

CC1(C)CCC(c2ccc(Cl)cc2)=C(CN2CCN(c3ccc(C(=O)NS(=O)(=O)c4ccc(N[C@H](CCN5CCOCC5)CSc5ccccc5)c(S(=O)(=O)C(F)(F)F)c4)cc3)CC2)C1    0.81

Attention now turns to another entry.
Look up CTG-3D luminescence at 96 h for this compound: CC(=O)O[C@H]1C(=O)[C@@]2(C)[C@H]([C@H](OC(=O)c3ccccc3)[C@]3(O)C[C@H](OC(=O)[C@H](O)[C@@H](NC(=O)c4ccccc4)c4ccccc4)C(C)=C1C3(C)C)[C@]1(OC(C)=O)CO[C@@H]1C[C@@H]2O
0.168

###

Tested on: HCI-002
runDescription: CTG-3D luminescence at 96 h relative to day-0 seeding control (ratio to day 0); higher = more growth / less cytotoxicity; PDxO 3D drug screen, 96 h, CTG-3D normalised to day-0 seeding control.
measurementConditions: 10 µM; days in culture: 191
Entries and their CTG-3D luminescence at 96 h
The answer should be written as a number, with no unit following it.

Worked examples, 2 molecules total:
Nc1ccn([C@@H]2O[C@H](CO)[C@@H](O)C2(F)F)c(=O)n1    0.295
CC(C)n1nc(-c2ccc3oc(N)nc3c2)c2c(N)ncnc21    0.443

Next, consider the following molecule.
CTG-3D luminescence at 96 h lookup needed for C/C=C1\NC(=O)[C@H]2CSSCC/C=C/[C@H](CC(=O)N[C@H](C(C)C)C(=O)N2)OC(=O)[C@H](C(C)C)NC1=O , thanks.
-0.0909

Entry source: the supplement of paper PMC8882468
